Where do these numbers come from? They come from patent US20240000957A1.

Target: T1, Human EphA2 (Ecto), C-terminal polyHis (Human, UniProt P29317 24-537)
T1 construct: extracellular domain; R&D systems 3035-A2 or in-house
T1 sequence (P29317 24-537): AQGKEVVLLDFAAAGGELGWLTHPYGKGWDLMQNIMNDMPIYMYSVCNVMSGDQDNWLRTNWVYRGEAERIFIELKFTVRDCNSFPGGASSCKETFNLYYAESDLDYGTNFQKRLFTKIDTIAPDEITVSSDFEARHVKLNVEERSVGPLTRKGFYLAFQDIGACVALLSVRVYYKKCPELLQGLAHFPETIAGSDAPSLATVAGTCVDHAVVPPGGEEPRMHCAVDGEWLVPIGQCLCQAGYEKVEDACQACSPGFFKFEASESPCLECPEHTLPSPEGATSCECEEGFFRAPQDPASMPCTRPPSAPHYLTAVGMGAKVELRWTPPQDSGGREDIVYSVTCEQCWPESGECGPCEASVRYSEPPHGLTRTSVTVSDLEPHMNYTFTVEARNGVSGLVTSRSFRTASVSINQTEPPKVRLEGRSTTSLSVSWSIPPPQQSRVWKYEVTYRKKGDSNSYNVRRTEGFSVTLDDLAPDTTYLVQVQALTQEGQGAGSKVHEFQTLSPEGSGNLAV
Assay: FP competition vs Reference Compound C
pKi: −log10 of the molar value. *1 amine or outer side, *2 acyl side, *3 side chain or, on linkers, in order; H or OH if unused. Bridges are numbered along the chain shown (N, C = ends). Where no end group is shown, it is not given here. [ ]: non-standard residue; d: D form. TATA = O=C(CC[*:1])N1CN(C(=O)CC[*:2])CN(C(=O)CC[*:3])C1; βAla = NCCC(=O)O; Sar = CNCC(=O)O
// label = yes (1) if pKi is not less than 7, otherwise no (0)

ACPLVNPLCLHPGWRCA (linker 2-9-16 via TATA; not fully specified (C-terminus)) [Compound 55]	yes (1)
ACPLVNPLCLEPGWTCA (linker 2-9-16 via TATA; not fully specified (C-terminus)) [Compound 84]	yes (1)
ACPLVNPLCLHPGWICA (linker 2-9-16 via TATA; not fully specified (C-terminus)) [Compound 54]	yes (1)
ACRGEWGYCAYPDTICA (linker 2-9-16 via TATA; not fully specified (C-terminus)) [Compound 34]	no (0)
[βAla][Sar][Sar][Sar][Sar][Sar][Sar][Sar][Sar][Sar][Sar]ACPLVNPLCLHPGWSCRGQ (linker 13-20-27 via TATA; not fully specified (C-terminus); printed as (β-Ala)-Sar10-ACPLVNPLCLHPGWSCRGQ) [Compound 89]	yes (1)
ARDCPLVNPLCLHPGWTCA (linker 4-11-18 via TATA; not fully specified (C-terminus)) [Compound 65]	yes (1)
